All values here come from patent US20180030151A1.

Give FXa assay % of FXa alone, 5 nM Ab, 10 nM TFPI for every item shown.
molecular target: recombinant human TFPI (tissue factor pathway inhibitor) (human, UniProt P10646 29-304); assay: cell-based or functional assay

Req: Tell me the measured FXa assay % of FXa alone, 5 nM Ab, 10 nM TFPI of clone 3241 (antibody, V domains shown, scFv on yeast at selection; human IgG4/kappa IgG as purified; also called No. 3241 antibody) VH: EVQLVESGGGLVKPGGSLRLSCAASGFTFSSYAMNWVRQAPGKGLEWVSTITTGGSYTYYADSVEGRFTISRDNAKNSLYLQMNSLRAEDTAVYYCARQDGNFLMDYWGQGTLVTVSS VL: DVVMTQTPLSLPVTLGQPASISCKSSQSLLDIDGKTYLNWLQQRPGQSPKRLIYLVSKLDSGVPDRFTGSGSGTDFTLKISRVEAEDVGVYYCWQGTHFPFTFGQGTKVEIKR , please.
Resp: 50.9%

Req: Need FXa assay % of FXa alone, 5 nM Ab, 10 nM TFPI of clone 1023 (antibody, V domains shown, scFv on yeast at selection; human IgG4/kappa IgG as purified) VH: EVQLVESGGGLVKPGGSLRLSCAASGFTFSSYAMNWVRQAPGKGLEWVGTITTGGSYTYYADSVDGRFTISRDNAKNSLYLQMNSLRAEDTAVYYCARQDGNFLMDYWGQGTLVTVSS VL: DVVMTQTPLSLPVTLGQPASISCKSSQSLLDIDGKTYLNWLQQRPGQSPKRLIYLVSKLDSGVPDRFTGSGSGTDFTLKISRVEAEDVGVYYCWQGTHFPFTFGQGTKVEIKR , thanks.
Resp: 37.7%

Req: Given the binder clone 3203 (antibody, V domains shown) VH: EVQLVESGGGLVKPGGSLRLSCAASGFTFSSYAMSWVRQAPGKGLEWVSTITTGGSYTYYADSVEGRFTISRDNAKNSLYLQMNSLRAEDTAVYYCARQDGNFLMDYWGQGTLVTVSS VL: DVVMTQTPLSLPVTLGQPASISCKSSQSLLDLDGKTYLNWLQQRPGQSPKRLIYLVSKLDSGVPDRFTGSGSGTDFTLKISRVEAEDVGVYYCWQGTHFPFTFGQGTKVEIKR , what is its reported FXa assay % of FXa alone, 5 nM Ab, 10 nM TFPI?
Resp: 13.5%
